Reference source for all entries: patent US20090143279A1

Tested on: reactive oxygen species
Assay type: cell-based, mouse
Settings: Conc 20 μM; normalized score vs mock-treated (DMSO) wells

compound	ROS (composite Z-score)
CC(=O)Oc1cccc(C(=O)O)c1OC(C)=O	1.260
CC(=O)O[C@@H]1CC2C(C)(C)[C@H](O)C=C[C@]2(C)C2CC[C@]3(C)C(=CC(=O)O[C@H]3c3ccoc3)[C@@]21C (stereo partly drawn) [3-alpha-hydroxydeoxygedinin]	0.531
O=C1c2ccc(O)cc2OC(c2cc(O)c(O)c(O)c2)C1O (stereo in doubt) [dihydrorobinetin, reference compound]	−0.393
CC1=CC(=O)C2=C(C)C[C@H](O)[C@@H]3[C@H](OC(=O)[C@H]3C)[C@H]12	0.665

====

Tested on: mitochondrial membrane potential
Type: cell-based, mouse
Details: composite Z-score vs DMSO; Conc 20 μM
ΔΨm below -0.7 gives not fulfilled; ΔΨm at or above it gives fulfilled.

compound	assay_system	qualitative_label
C[C@@H]1O[C@@H](O[C@H]2[C@H](O[C@H]3CC[C@@]4(C)[C@@H](CC[C@]5(C)[C@@H]4CC=C4[C@@H]6CC(C)(C)CC[C@]6(C(=O)O)CC[C@]45C)[C@]3(C)CO)OC[C@H](O)[C@@H]2O)[C@H](O)[C@H](O)[C@H]1O [sapindoside A]	mitochondrial membrane potential	not fulfilled
O=c1cc(-c2ccc(O)cc2)oc2cc(O[C@@H]3O[C@H](CO)[C@@H](O)[C@H](O)[C@H]3O[C@@H]3OC[C@](O)(CO)[C@H]3O)cc(O)c12 [apiin]	mitochondrial membrane potential	fulfilled
C[C@]12CCC3c4ccc(OC(=O)c5ccccc5)cc4CCC3C1CCC2=O (some centres unmarked) [estrone benzoate]	mitochondrial membrane potential	fulfilled
C[C@H]1CC[C@]2(NC1)O[C@H]1C[C@H]3[C@@H]4CC[C@H]5C[C@@H](O)CC[C@]5(C)[C@H]4CC[C@]3(C)[C@H]1[C@@H]2C [tomatidine]	mitochondrial membrane potential	fulfilled
COC(=O)N/N=C/c1c[n+]([O-])c2ccccc2[n+]1[O-] [carbadox]	mitochondrial membrane potential	not fulfilled
c1ccc2c(c1)CN1CCCC1=N2 [desoxypeganine]	mitochondrial membrane potential	fulfilled
Cc1ccc(/N=C/N(C)/C=N/c2ccc(C)cc2C)c(C)c1 [amitraz]	mitochondrial membrane potential	not fulfilled
CC1(O)CC2C(CC1O)C2(C)C (centres unmarked) [3,4-dihydroxycarane]	mitochondrial membrane potential	fulfilled
N=C(N)N/N=C/c1c(Cl)cccc1Cl [guanabenz]	mitochondrial membrane potential	not fulfilled
CN1C(C)(C)CCCC1(C)C [pempidine]	mitochondrial membrane potential	fulfilled
C[C@H](N)[C@H](O)c1cccc(O)c1 [metaraminol]	mitochondrial membrane potential	not fulfilled

====

Tested on: cellular dehydrogenase activity
Conditions: composite Z-score vs DMSO; Conc 20 μM

compound	MTT
CC(=O)c1ccc(O)c(CC=C(C)C)c1 [3-prenyl-4-hydroxyacetophenone]	−1.066
C[C@H](N)CO	−0.342
C[C@H]1C(=O)CC[C@@H]2[C@]1(C)CC[C@H]1[C@@]2(C)CC[C@@]2(C)[C@@H]3CC(C)(C)CC[C@]3(C)CC[C@]12C	−1.362
C=C[C@H]1C[N@@]2CC[C@H]1C[C@@H]2[C@@H](O)c1ccnc2ccc(OC)cc12	−0.233
COc1cc2c(cc1OC)[C@@H]1C(=O)c3ccc4c(c3O[C@@H]1CO2)CC(C(C)C)O4 (stereo partly drawn) [beta-dihydrorotenone, reference compound]	−2.771
C[C@]12CCC3C(CC[C@H]4C[C@H](O)CC[C@]34C)C1CC[C@@H]2O (some centres unmarked) [epiandrostanediol]	−0.207
COc1ccc2c(c1OC)C(=O)O[C@@H]2[C@H]1c2cc3c(cc2CCN1C)OCO3 [1s,9r-hydrastine]	−0.539
O=C(C=C(O)c1ccccc1)c1ccccc1O [2′,beta-dihydroxychalcone]	−1.791
